# Tested on: K4 kissing-loop RNA reporter;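 note: bound reporter read as fluorescence of individual clusters on recovered sequencing chips by microscopy, with normalized cluster intensities fitted with a binding model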
# Procedure Text: apparent KD of K4 kissing-loop reporter; higher = weaker reporter binding
# Measurement Setup: Eterna round: R107; input ligand: arginine 13.2 mM
Quick rule: apparent KD of K4 kissing-loop reporter of at least 300 nM means t, below that means f.

Quick check: does CAUACGAAGCAGUGAUGUUGCUUAUGAGAAGGAGCGCACGAAAGUGCAGGUAGGUCGCUCAGCCAUGUGGACGAAAACGUCCACA [whbob_SS_Arginine_A_sa112] have apparent KD of K4 kissing-loop reporter greater than or equal to 300 nM?
f

Also, GGAUAGGACAGAGGAUAUCUCUGAGGCAAGAAAACUUGUCUCAAAAGAGAUGACUCAGUGAUGUUGAGAGAAGGCUGUCCUAUCG [FmnBX 8 - #SwitchBubble #StaticStem] please.
f

AAUCAAUACAGAAGGAGCGUGACAUUUGCUAUUGUAAUUUUAGCUAGUGAUGUUAGCAUUUCACAGGUAGGUCGCUGUACAUUUA [JR_SSArginiB_Sub010] , same question.
t

Note, next up: UGCAUCAGUGCCUUUGAUCUAUUCCUGGAUACCAGAUCCUACUUGAUCCCUUGGCAGCCAUACGGGAGUGAUGUUCCAUGUAUCC [theeternabot_exclusion_KL_Theo_A_43]
f
